- STUDY_TARGET: human PD-L1 (Homo sapiens (Human), UniProt Q9NZQ7)
- Sequence (Q9NZQ7 19-290): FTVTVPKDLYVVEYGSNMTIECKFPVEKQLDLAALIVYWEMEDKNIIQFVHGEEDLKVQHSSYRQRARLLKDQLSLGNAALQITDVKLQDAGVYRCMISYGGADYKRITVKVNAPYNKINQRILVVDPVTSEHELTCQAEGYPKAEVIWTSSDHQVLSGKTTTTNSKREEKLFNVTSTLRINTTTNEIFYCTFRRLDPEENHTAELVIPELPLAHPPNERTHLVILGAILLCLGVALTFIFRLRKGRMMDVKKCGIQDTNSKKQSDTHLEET
- ASSAY_NOTES: T cell activation luciferase reporter cell culture system (T Cell Activation Assay)
- Format: cell-based
- STATED_CONDITIONS: luciferase reporter assay; PD-L1 aAPC/CHO-K1 cells with PD-1 effector Jurkat T cells
Below is a list of entries, each paired with its recorded pEC50 value.
The read-out pEC50 is expressed as -log10 of concentration in moles per litre.

In the examples that follow, each entry is paired with its recorded pEC50.
| SMILES_STRING | REPORTED_VALUE |
| --- | --- |
| COc1cc(-c2ncnc(-c3cccc(-c4ccc(CNC[C@@H]5CCC(=O)N5)c(OC)n4)c3Cl)c2OC)ccc1CNC[C@@H]1CCC(=O)N1 | 6.03 |
| COc1cc(-c2nccc(-c3cccc(-c4ccc5c(OC)c(CNC[C@H](C)O)cc(Cl)c5n4)c3Cl)c2Cl)ccc1CNC[C@@H]1CCC(=O)N1 | 6.74 |
| COc1nc(-c2cccc(-c3ccnc(-c4cnc5c(CNC6CCN(C(C)=O)CC6)cn(C)c5c4)c3Cl)c2Cl)ccc1CNC[C@@H]1CCC(=O)N1 | 7.12 |
| COCCNCc1ccc(-c2nccc(-c3cccc(-c4ccc(CNCCOC)c(OC)n4)c3Cl)c2Cl)cc1OC | 7.51 |
| COc1nc(-c2cccc(-c3ccnc(-c4cc(OC)c5nc(CNCCC6(C(=O)O)CC6)cn5c4)c3Cl)c2Cl)ccc1CNC[C@@H]1CCC(=O)N1 | 6.84 |
| COc1nc(-c2cccc(-c3ccnc(-c4cc5c(=O)n(C)c(CN6CC(C)(O)C6)nn5c4)c3Cl)c2Cl)ccc1CN1CC(C)(O)C1 | 6.98 |

Query block: Identify the reported pEC50 for the following entry. COc1cc(-c2nccc(-c3cccc(-c4cc(Cl)c(CNC[C@@H]5CCC(=O)N5)c(OC)n4)c3Cl)c2Cl)cc2c1CN(C[C@@H](C)O)CC2
Result block: 7.51

Query block: Identify the reported pEC50 for the following entry. COCCC(=O)N1CC2(CN(Cc3ccc(-c4nccc(-c5cccc(-c6ccc(CN7CC8(C7)CN(C(=O)CCOC)C8)c(OC)n6)c5Cl)c4Cl)cc3OC)C2)C1
Result block: 7.52

Query block: Please indicate pEC50 recorded for COc1nc(-c2cccc(-c3ccnc(-c4ccc(CNC5CCOCC5)c(OC)n4)c3Cl)c2Cl)ccc1CNC1CCOCC1
Result block: 6.94

Query block: For the compound COc1cc(-c2nccc(-c3cccc(-c4ccc(CNC5CCOCC5)c(OC)n4)c3Cl)c2C)ccc1CNC1CCOCC1 , give its measured pEC50 value.
Result block: 6.75

Query block: Identify the reported pEC50 for the following entry. COCC1CCN(Cc2ccc(-c3nccc(-c4cccc(-c5ccc(CNC6CCN(C(C)=O)CC6)c(OC)n5)c4Cl)c3Cl)cc2OC)CC1
Result block: 7.00

Origin of the recorded values: patent US20240246964A1
